- System: HOP-92 NSCLC
- Assay Comment: NCI tumour cell line growth inhibition, 48 h; in the data active = GI50 below about 0.43 µM; inactive = the rest
Respond using exactly one of the listed classes: active, inactive

Past entries and their recorded results:
CCN1C(=O)N(CC)C2C1NN=c1s/c(=C3\C(=O)N(CC(C)(C)C)c4ccccc43)c(=O)n12 (stereo not given)
inactive
O=C(Nc1ccc(F)cc1)c1cc(S(=O)(=O)Nc2nc3ccccc3o2)c(SCc2ccccc2)cc1Cl
inactive
OCCCNc1nccc(-c2c(-c3ccc(F)cc3)nn3cc(C(F)(F)F)ccc23)n1
inactive
CN1C(=O)/C(=C/c2c(Cl)n(C)c3ccccc23)c2ccccc21
inactive

Please state the recorded outcome for this molecule: COc1ncc(-c2ccc3ncnc(Nc4cccc(Cl)c4)c3c2)cc1NS(=O)(=O)C1CC1 active

Please state the recorded outcome for this molecule: O=C(Nc1ccc(-n2ccc3c(NC(=O)c4ccccc4)nccc32)cc1)Nc1ccc(Cl)c(Cl)c1 inactive

Please state the recorded outcome for this molecule: O=C1NC(=NCCc2cccc(Cl)c2)S/C1=C\c1ccc2ncccc2c1 inactive

Please state the recorded outcome for this molecule: CCN(Cc1ccccc1C)c1ccc(CO)c(Cl)c1 inactive

Please state the recorded outcome for this molecule: CC(=O)[O][Ga]([Br])[O]C(C)=O inactive

Please state the recorded outcome for this molecule: O[C@H](c1cc(C(F)(F)F)nc2c(C(F)(F)F)cccc12)[C@@H]1CCCCN1 inactive
